assay.notes: Inhibition of Saccharomyces cerevisiae alpha-glucosidase using p-nitrophenyl-alpha-D-glucopyranoside substrate incubated for 30 mins
pIC50: −log10 of the molar value.
Catalogue of pIC50 readings, one per entry.

Examples with answers:
molecule | reported.result
CC(=O)O[C@@]12CO[C@@H]1C[C@H](O)[C@@]1(C)C(=O)[C@H](O)C3=C(C)[C@@H](OC(=O)[C@H](O)[C@@H](NC(=O)c4ccccc4)c4ccccc4)C[C@@](O)([C@@H](OC(=O)c4ccccc4)[C@H]21)C3(C)C | < 3.60
C=C1[C@@H]2[C@H](OC(C)=O)[C@@H]3CC(=O)[C@@]4(C)OC[C@@]3(C)[C@@]4(O)[C@@H](OC(C)=O)[C@H](OC(C)=O)[C@]2(COC(=O)c2ccccc2)[C@@H](OC(C)=O)C[C@@H]1O | < 3.60
CC(=O)O[C@@]12CO[C@@H]1C[C@H](O)[C@@]1(C)C(=O)[C@H](O)C3=C(C)C(=O)C[C@@](O)([C@@H](OC(=O)c4ccccc4)[C@H]21)C3(C)C | < 3.60
CC(=O)O[C@H]1C(=O)[C@@]2(C)[C@H]([C@H](OC(=O)c3ccccc3)[C@]3(O)C[C@H](OC(=O)[C@H](O)[C@@H](NC(=O)c4ccccc4)c4ccccc4)C(C)=C1C3(C)C)[C@]1(OC(C)=O)CO[C@@H]1C[C@@H]2O [PACLITAXEL] | < 3.60
C=C1[C@@H](O)C[C@H](OC(C)=O)[C@@]2(C)[C@@H](OC(C)=O)[C@H](OC(C)=O)C3=C(C)C(=O)C[C@@H]([C@@H](O)[C@H]12)C3(C)C | < 3.60

Turning now to a further record.
Inquiry: Dear colleague, please send me the reported pIC50 for `CC=C(C)C(=O)N[C@@H](c1ccccc1)[C@@H](O)C(=O)O[C@H]1C[C@@]2(O)[C@@H](OC(=O)c3ccccc3)[C@@H]3[C@]4(OC(C)=O)CO[C@@H]4C[C@H](O[C@@H]4OC[C@@H](O)[C@H](O)[C@H]4O)[C@@]3(C)C(=O)[C@H](OC(C)=O)C(=C1C)C2(C)C` when you can.
Reply text: < 3.60
